- System: Saccharomyces cerevisiae
MIC values, listed per item

| SMILES_ENTRY | MIC |
| --- | --- |
| CCCCCCCCCCCN1CCC[C@H]1C(=O)N[C@@H](CC(=O)OC)C(=O)OC | 8 µg/mL |
| CCCCCCCCCN1CCC[C@H]1C(=O)N[C@@H](CC(=O)OC)C(=O)OC | 32 µg/mL |
| CCCCCCCCCN1CCC[C@H]1C(=O)N[C@H](CC(=O)O)C(=O)O | > 128 µg/mL |
| CCCCCCCCCCCN1CCC[C@H]1C(=O)N[C@@H](CC(=O)O)C(=O)O | > 128 µg/mL |

Then this molecule:
Input `OC(Cn1cncn1)(Cn1cncn1)c1ccc(F)cc1F` , output reported MIC.
4 µg/mL
